The reader will find reported log10 of clearance values listed item by item below.
# EXPERIMENT_NOTES: Pharmacokinetic evaluation in C57BL/6 mice after intravenous and oral administration
# Type: in vivo
# RECORDED_CONDITIONS: male, mouse, plasma, IV 1 mg/kg, read-out: clearance CL
Please interpret these as log10 of clearance where clearance is in mL/min/kg.

*Q* Output log10 of clearance of O=C(O)[C@@H]1CCCN1CC1(CN[C@H]2CC2c2ccccc2)CC1 (stereo partly shown)
*A* 1.58

*Q* Output log10 of clearance of FC(F)(F)c1ccc(-c2nc(C3(CN[C@H]4CC4c4ccccc4)CC3)no2)cn1 (stereo partly shown)
*A* 1.12

*Q* Output log10 of clearance of `O=C(O)[C@H]1CC[C@H](c2nc(C3(CN[C@@H]4C[C@H]4c4ccccc4)CC3)no2)CC1`
*A* 1.06

*Q* Output log10 of clearance of CC1(c2nc(C3(CN[C@@H]4C[C@H]4c4ccccc4)CC3)no2)CCC(N)CC1 (stereo partly shown)
*A* 2.05

*Q* Output log10 of clearance of Clc1ccc(-c2nc(C3(CN[C@H]4CC4c4ccccc4)CC3)no2)cc1 (stereo partly shown)
*A* 1.03

*Q* Output log10 of clearance of `N[C@H]1CC[C@H](c2noc(C3(CN[C@@H]4C[C@H]4c4ccccc4)CC3)n2)CC1`
*A* 1.86

---

# EXPERIMENT_NOTES: Pharmacokinetic evaluation in C57BL/6 mice after intravenous and oral administration
# Type: in vivo
# RECORDED_CONDITIONS: male, mouse, plasma, IV 1 mg/kg, read-out: half-life T1/2 (IV, h) (converted)
# Method: Experimental purposes: To test the pharmacokinetics of compounds in C57BL/6 mice C57BL/6 mice (male, 7-9 weeks old, Shanghai Slack) Test the pharmacokinetics characteristics of rodents after intravenous and oral administration in accordance with standard protocols, and the candidate compound was formulated into a clear solution in the experiment. The mice were administered by intravenous injection and orally once. […]
Param label: returns True when half-life < 3 h, returns False otherwise, including exact equality.

*Q* In plain terms, does O=C(O)[C@@H]1CCCN1CC1(CN[C@H]2CC2c2ccccc2)CC1 (some centres unmarked) come in under 3 h for half-life?
*A* True

*Q* In plain terms, does `O=C(O)[C@H]1CC[C@H](c2nc(C3(CN[C@@H]4C[C@H]4c4ccccc4)CC3)no2)CC1` come in under 3 h for half-life?
*A* True

*Q* In plain terms, does `N[C@H]1CC[C@H](c2noc(C3(CN[C@@H]4C[C@H]4c4ccccc4)CC3)n2)CC1` come in under 3 h for half-life?
*A* True

*Q* In plain terms, does Clc1ccc(-c2nc(C3(CN[C@H]4CC4c4ccccc4)CC3)no2)cc1 (some centres unmarked) come in under 3 h for half-life?
*A* False

---

The reader will find reported Cmax values listed item by item below.
# EXPERIMENT_NOTES: Pharmacokinetic evaluation in C57BL/6 mice after intravenous and oral administration
# Assay type: in vivo
# RECORDED_CONDITIONS: male, mouse, plasma, IV 1 mg/kg, oral 2 mg/kg, route of Cmax not stated, read-out: max concentration Cmax

Some molecules with known Cmax results, for comparison:
                                   molecule  experimental_readout  assay_value
0  Clc1ccc(-c2nc(C3(CN[C@H]4CC4c4ccccc4)CC3)no2)cc1 (stereo partly drawn)                  Cmax   2070 ng/mL
1  N#Cc1ccc(-c2nc(C3(CN[C@H]4CC4c4ccccc4)CC3)no2)cc1 (stereo partly drawn)                  Cmax   1290 ng/mL
2  O=C(O)C12CCC(c3nc(C4(CN[C@H]5CC5c5ccccc5)CC4)no3)(CC1)CC2 (stereo partly drawn)                  Cmax   3210 ng/mL

*Q* Output Cmax of `O=C(O)[C@H]1CC[C@H](c2nc(C3(CN[C@@H]4C[C@H]4c4ccccc4)CC3)no2)CC1`
*A* 5090 ng/mL

---

The reader will find reported pIC50 values listed item by item below.
# TARGET_OF_ASSAY: human LSD1 (Homo sapiens (Human))
pIC50: −log10 of the molar value.

Some compounds with known pIC50 results, for comparison:
                                   compound   assay_value
0  FC(F)(F)c1cc(-c2nc(C3(CN[C@H]4CC4c4ccccc4)CCC3)no2)ccn1 (stereo partly shown)        ≥ 7.30
1  O=C(O)[C@H]1CC[C@H](c2nc(C3(CN[C@@H]4C[C@H]4c4ccccc4)CC3)no2)CC1  6.30 to 7.00
2  c1ccc(C2C[C@@H]2NCC2(c3noc(-c4ccc(-n5cnnc5)cc4)n3)CCC2)cc1 (stereo partly shown)        ≥ 7.30

*Q* Output pIC50 of `c1ccc([C@@H]2C[C@H]2NCC2(CN3CCCNCC3)CC2)cc1`
*A* 6.30 to 7.00

---

The reader will find reported IC50 values listed item by item below.
# TARGET_OF_ASSAY: UniProtKB O60341
# EXPERIMENT_NOTES: Evaluation of enzyme activity: LSD1 fluorescence coupling enzyme assay (HRP/Amplex Red)
# Type: biochemical
# RECORDED_CONDITIONS: human LSD1, histone H3(1-21)K4me2 peptide 10 μM, 30 min pre-incubation

Some molecules with known IC50 results, for comparison:
                                   molecule   target_of_assay   assay_value
0  c1ccc([C@@H]2C[C@H]2NCC2(c3noc(N4CCNCC4)n3)CC2)cc1 [Example 246]  UniProtKB O60341       ≤ 50 nM
1  c1ccc([C@@H]2C[C@H]2NCC2(c3noc([C@@H]4C[C@H]5CNC[C@H]5C4)n3)CC2)cc1 [Example 157]  UniProtKB O60341  50 to 100 nM
2  FC(F)Oc1ccc(-c2nc(C3(CN[C@H]4CC4c4ccccc4)CCC3)no2)cc1 (some centres unmarked) [Example 89]  UniProtKB O60341       ≤ 50 nM
3  CC(C)Oc1ccc(-c2nc(C3(CN[C@H]4CC4c4ccccc4)CCC3)no2)cc1 (some centres unmarked) [Example 87]  UniProtKB O60341       ≤ 50 nM
4  N#Cc1ccc(-c2nc(C3(CN[C@H]4CC4c4ccccc4)CC3)no2)cc1 (some centres unmarked) [Example 64]  UniProtKB O60341       ≤ 50 nM

# context switch: different molecule, same IC50
*Q* Output IC50 of FC(F)(F)Oc1ccc(-c2nc(C3(CN[C@H]4CC4c4ccccc4)CCC3)no2)cc1 (some centres unmarked) [Example 88]
*A* ≤ 50 nM

---

# EXPERIMENT_NOTES: Pharmacokinetic evaluation in C57BL/6 mice after intravenous and oral administration
# Type: in vivo
# RECORDED_CONDITIONS: male, mouse, plasma, IV 1 mg/kg, read-out: volumes of distribution Vdss
Short version: Vd at least 2 L/kg is 1, less is -1.

Worked examples follow.
>>> print(df.to_string())
                                   compound  cat
0  O=C(O)C1(CN2CCC(c3nc(C4(CN[C@@H]5C[C@H]5c5ccccc5)CC4)no3)CC2)CCC1 [Example 235]   -1
1  N[C@H]1CC[C@@H](c2nc(C3(CN[C@@H]4C[C@H]4c4ccccc4)CC3)no2)CC1 [Example 145]    1
2  N#Cc1ccc(-c2nc(C3(CN[C@H]4CC4c4ccccc4)CC3)no2)cc1 (some centres unmarked) [Example 64]   -1
3  N[C@H]1CC[C@H](c2nc(C3(CN[C@@H]4C[C@H]4c4ccccc4)CC3)no2)CC1 [Example 144]    1

Would you kindly look at the next entry?
*Q* Is Vd at least 2 L/kg? Consider O=C(O)c1ccc(CN2CCC(c3nc(C4(CN[C@@H]5CC5c5ccccc5)CC4)no3)CC2)cc1 (some centres unmarked) [Example 169]
*A* -1

---

# EXPERIMENT_NOTES: Pharmacokinetic evaluation in C57BL/6 mice after intravenous and oral administration
# Type: in vivo
# RECORDED_CONDITIONS: male, mouse, plasma, PO 2 mg/kg vs IV 1 mg/kg, read-out: bioavailability F (%)
Short version: bioavailability at least 40% is 1, less is -1.

>>> df
                                   molecule  cat
0  O=C(O)C12CCC(c3nc(C4(CN[C@H]5CC5c5ccccc5)CC4)no3)(CC1)CC2 (stereo partly shown)    1

*Q* Is bioavailability at least 40%? Consider CC1(c2nc(C3(CN[C@@H]4C[C@H]4c4ccccc4)CC3)no2)CCC(N)CC1 (stereo partly shown)
*A* -1

*Q* Is bioavailability at least 40%? Consider `O=C(O)[C@H]1CC[C@H](c2nc(C3(CN[C@@H]4C[C@H]4c4ccccc4)CC3)no2)CC1`
*A* 1

*Q* Is bioavailability at least 40%? Consider FC(F)(F)c1ccc(-c2nc(C3(CN[C@H]4CC4c4ccccc4)CC3)no2)cn1 (stereo partly shown)
*A* 1

*Q* Is bioavailability at least 40%? Consider `N[C@H]1CC[C@@H](c2nc(C3(CN[C@@H]4C[C@H]4c4ccccc4)CC3)no2)CC1`
*A* -1

*Q* Is bioavailability at least 40%? Consider `N[C@H]1CC[C@H](c2nc(C3(CN[C@@H]4C[C@H]4c4ccccc4)CC3)no2)CC1`
*A* -1

*Q* Is bioavailability at least 40%? Consider `N[C@H]1CC[C@H](c2noc(C3(CN[C@@H]4C[C@H]4c4ccccc4)CC3)n2)CC1`
*A* 1

*Q* Is bioavailability at least 40%? Consider `N[C@H]1CC[C@H](c2cc(C3(CN[C@@H]4C[C@H]4c4ccccc4)CC3)no2)CC1`
*A* -1

*Q* Is bioavailability at least 40%? Consider O=C(O)c1ccc(CN2CCC(c3nc(C4(CN[C@@H]5CC5c5ccccc5)CC4)no3)CC2)cc1 (stereo partly shown)
*A* -1
